# tested target: T1, CD25 protein (Sino Biological, 10165-H08H) (UniProt P01589 22-213)
# T1 construct: Bought recombinant protein; It speaks elsewhere of human CD25; also called antigen CD25; IL-2Rα
# T1 sequence (looked up): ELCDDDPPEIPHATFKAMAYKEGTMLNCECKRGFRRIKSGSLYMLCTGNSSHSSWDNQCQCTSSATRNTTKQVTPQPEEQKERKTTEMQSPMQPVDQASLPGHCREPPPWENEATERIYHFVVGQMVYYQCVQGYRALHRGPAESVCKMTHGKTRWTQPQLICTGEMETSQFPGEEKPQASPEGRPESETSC
# procedure text: SPR (BIAcore 8K); antibody captured by anti-human IgG Fc, CD25 protein as analyte, 1:1 model
# Procedure: Antibody binding kinetics uses BIAcore8K instrument based on surface plasmon resonance (SRP) technology to measure. […] The antibody to be detected: 2 μg/ml, sample injection time 70 s, flow rate 5 μL/min, stable for 5 s; CD25 protein: binding for 60 s, flow rate 30 μL/min, dissociation for 450 s; regeneration: regeneration was performed for 30 s with 3M MgCl₂ buffer, Startup 3 times. […]
measurement label: kon
# do not omit the unit; it follows the number

{"columns": ["binder", "measurement label", "data value"],
 "data": [
  ["CD25Q2-BA9-IgG1 (antibody, V domains shown, IgG1 expressed in HEK293; also called CD25Q-BA9-IgG1) VH: QVQLQQWGAGLLKPSETLSLTCAVYGGSFSGYYWSWIRQPPGKGLEWIGEIDHSGSTIYNPSLKSRVTISLDTSKNQFSLKLSSVTAADTALYYCARGEAFDIWGQGTMVTVSS VL: DIVMTQSPSTLSASVGDRVTITCRASQSLRSYLAWYQQKPGKAPKLLIYKASSLESGVPSRFSGSGSGTEFTLTISSLQPDDFATYYCQQYNSYSWTFGQGTKVEIKR", "kon", "696000 M⁻¹ s⁻¹"],
  ["CD25Q11-BA402-IgG1 (antibody, V domains shown, IgG1 expressed in HEK293) VH: QVQLVQSGAEVKKPGESLKISCKGSGYSFSNYWIAWVRQMPGKGLEWMGIIYPGDSATRYSPSFQGQVTISADKSINTAYLQWSSLRASDTAMYYCARGPYYFEYWGQGTLVTVSS VL: DIVMTQSPSTLSASVGDRVTLTCRASQSISSYLAWYQQKPGKAPKLLIYKASTLESGVPSRFSGSGSGTEFTLTISSLQPDDFATYYCQHYNSYSVTFGGGTKVEIKR", "kon", "350000 M⁻¹ s⁻¹"],
  ["CD25Q14-BA448-IgG1 (antibody, V domains shown, IgG1; The VH is copied as printed. 'YVVGQG' near its end may be a misprint of 'YWGQG') VH: EVQLVQSGAEVKKPGESLKISCKGSGYNFANYWIVWVRQMPGKGLEWMGITYPDDSETRYSPSFQGQVTFSADKSISTAYLQWSSLKASDTAMYYCTRGPYYSDYWGQGTLVTVSS VL: DIQMTQSPSTLSASVGDRVTITCRASQSISSWLAWYQQKPGKAPKLLIYKASSLESGVPSRFSGSGSGTEFTLTISSLQPDDFATYYCQQYDRFSWTFGQGTKVEIKR", "kon", "587000 M⁻¹ s⁻¹"]
]}

Would you kindly look at the next entry?
Given the binder CD25Q14-CA705-IgG1 (antibody, V domains shown, IgG1 expressed in HEK293) VH: EVQLVQSGAEVKKPGESLKISCKGSGYSFANYWIVWVRQMPGKGLEWMGIIYPDDSETRYSPSFQGQVTFSADKSISTAYLQWSSLKASDTAMYYCTRGPYYSDYWGQGTLVTVSS VL: DIQMTQSPSTLSASVGDRVSITCRASQSIGSWLAWYQQKPGKAPKLLIFEASNLESGVPSRFSGSGSGTEFTLTISNLQPDDFATYYCQQYNSYSLTFGGGTKVEIKR , what is its reported kon?
381000 M⁻¹ s⁻¹
